Assign IC50 to each entry below.
molecular target: DNA dC->dU-editing enzyme APOBEC-3G (Homo sapiens); assay type: functional;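 further: Dose-response counterscreen measuring inhibition of APOBEC3G DNA deaminase activity, run while confirming APOBEC3A inhibitors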
Sequence (Q9HC16 whole entry): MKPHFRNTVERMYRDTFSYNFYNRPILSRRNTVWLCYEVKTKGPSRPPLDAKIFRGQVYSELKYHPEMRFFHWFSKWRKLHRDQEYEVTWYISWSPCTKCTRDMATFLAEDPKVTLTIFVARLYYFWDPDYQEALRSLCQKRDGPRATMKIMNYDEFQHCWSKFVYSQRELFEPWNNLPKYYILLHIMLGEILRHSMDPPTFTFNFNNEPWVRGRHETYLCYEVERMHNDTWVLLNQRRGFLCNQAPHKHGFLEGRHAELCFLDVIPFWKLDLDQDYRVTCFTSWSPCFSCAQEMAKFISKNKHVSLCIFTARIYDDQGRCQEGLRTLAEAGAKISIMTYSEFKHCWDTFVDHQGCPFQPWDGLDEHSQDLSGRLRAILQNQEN
Calls of active or inactive are those of the source.

For the molecule CC1CCCC(C2(O)C(=O)Nc3ccccc32)C1=O (centres undefined) , what IC50 is on record?
5.64 µM (active)

For the molecule `CCN1C(NCCOC)=N[C@@H](c2cccc(C(F)(F)F)c2)C(C(=O)OC)=C1C` , what IC50 is on record?
1.95 µM (active)

For the molecule `O=C1NC(=O)N(CCc2ccc(F)cc2)C(=O)/C1=C/c1ccco1` , what IC50 is on record?
20.5 µM (active)

For the molecule `CCN(CC)P(c1n(C)cc[n+]1C)N(CC)CC` , what IC50 is on record?
3.2 µM (active)

====

experiment: cells; assay type: functional, cell-based
Activity calls are given as the source filed them.
recorded-endpoint: EC50

For the molecule `Cc1ccc(/C=N/NC(=O)CN2CCN(Cc3ccccc3Cl)CC2)o1` , what EC50 is on record?
> 350 µM (not active)

For the molecule `CC(=O)Nc1sc(-c2ccccc2)nc1-c1ccccc1` , what EC50 is on record?
> 350 µM (not active)

For the molecule `O=C(CCSc1nc2ccccc2s1)N/N=C/c1c(O)ccc2ccccc12` , what EC50 is on record?
8.97 µM (active)

For the molecule `Cc1cc(C)c2nc(NNC(=O)c3ccc(S(=O)(=O)N4CCc5ccccc5C4)cc3)sc2c1` , what EC50 is on record?
7.06 µM (active)

====

target: UniProt:Q38C41; experiment: Confirmation assay for inhibitors of Trypanosoma brucei hexokinase 1-Analogue-first series. [Related pubchem assays (depositor defined):AID1430, AID1632, AID2516, AID2560, AID2579, AID2600, AID449725, AID492951]; format: functional
Sequence (Q38C41 whole entry): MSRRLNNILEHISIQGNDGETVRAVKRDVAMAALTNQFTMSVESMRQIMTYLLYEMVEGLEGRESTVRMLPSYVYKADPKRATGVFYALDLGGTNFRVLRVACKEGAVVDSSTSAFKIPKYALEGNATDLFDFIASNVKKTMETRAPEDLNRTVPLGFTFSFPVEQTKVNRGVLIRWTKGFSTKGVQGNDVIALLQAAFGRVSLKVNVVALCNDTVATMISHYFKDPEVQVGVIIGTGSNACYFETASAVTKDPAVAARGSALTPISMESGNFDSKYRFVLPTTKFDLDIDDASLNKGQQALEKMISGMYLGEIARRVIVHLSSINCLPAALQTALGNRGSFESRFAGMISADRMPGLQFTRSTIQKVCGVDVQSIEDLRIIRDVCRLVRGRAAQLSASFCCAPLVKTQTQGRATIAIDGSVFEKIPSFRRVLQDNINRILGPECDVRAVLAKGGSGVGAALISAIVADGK
Active and inactive are the calls of the source.
Choose the fitting class; nothing outside active, inactive is accepted.

Which result was noted for this compound in the test: `COc1ccc(C(=O)Nc2cc(-c3ccccc3)ccc2C(=O)O)cc1`
inactive

Which result was noted for this compound in the test: `COc1ccc(NC(=O)c2ccccc2C(=O)O)cc1`
inactive

Which result was noted for this compound in the test: `COc1ccc(C(=O)Nc2cc(Cl)ccc2O)cc1`
inactive

Which result was noted for this compound in the test: `O=C(Nc1cc(Cl)ccc1C(=O)O)c1ccc(Cc2ccccc2)cc1`
active

====

Molecular target: Long-chain-fatty-acid--AMP ligase FadD28 (Mycobacterium tuberculosis, UniProt P9WQ59)
Sequence (P9WQ59 whole entry): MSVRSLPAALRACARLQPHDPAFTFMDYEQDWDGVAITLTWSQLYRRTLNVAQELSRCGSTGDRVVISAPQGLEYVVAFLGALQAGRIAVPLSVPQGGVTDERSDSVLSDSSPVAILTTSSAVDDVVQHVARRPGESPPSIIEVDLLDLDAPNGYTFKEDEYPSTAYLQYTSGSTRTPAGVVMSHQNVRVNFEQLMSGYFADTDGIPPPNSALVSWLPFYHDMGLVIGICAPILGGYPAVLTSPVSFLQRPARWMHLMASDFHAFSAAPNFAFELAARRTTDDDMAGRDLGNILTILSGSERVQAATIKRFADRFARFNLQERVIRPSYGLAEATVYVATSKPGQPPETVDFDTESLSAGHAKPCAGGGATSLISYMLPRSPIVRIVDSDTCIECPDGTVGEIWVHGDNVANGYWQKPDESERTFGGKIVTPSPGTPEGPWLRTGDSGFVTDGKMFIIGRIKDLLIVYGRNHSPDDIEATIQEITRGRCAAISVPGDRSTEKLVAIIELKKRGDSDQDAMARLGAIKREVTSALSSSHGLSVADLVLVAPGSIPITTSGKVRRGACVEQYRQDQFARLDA
Test: Fluorescence polarization aasay to screen for inhibitors that compete for the binding of FadD28 to a bisubstrate Measured in Biochemical System Using Plate Reader - 2147-01_Inhibitor_Dose_CherryPick_Activity.
Assay type: functional, Mycobacterium tuberculosis H37Rv
Activity calls are given as the source filed them.
Choose the fitting class; nothing outside y (active), n (inactive) is accepted.

Which result was noted for this compound in the test: `Cc1ccc(F)c(NC(=O)/C(C#N)=C(\O)c2ccc(C(C)(C)C)cc2)c1`
n

Which result was noted for this compound in the test: `NS(=O)(=O)c1ccc(NC(=O)COc2ccc(C(=O)c3ccc(F)cc3)cc2)cc1`
n

Which result was noted for this compound in the test: `COc1ccc(-c2csc(Nc3ccc(S(=O)(=O)Nc4cc(C)on4)cc3)n2)cc1`
y

Which result was noted for this compound in the test: `COc1cc(/C=C2\SC(=S)N(CC(=O)Nc3cccnc3)C2=O)cc(OC)c1OC`
y

Which result was noted for this compound in the test: C=CCOc1ccc(/C=C2\SC(=S)N(C(C(=O)O)c3ccccc3)C2=O)cc1 (stereo unspecified)
y

Which result was noted for this compound in the test: `Cc1ccc(S(=O)(=O)NCC(=O)Nc2ccc3c(c2)OCCO3)cc1`
n

====

Assign IC50 to each entry below.
target: UniProtKB Q9H0H5; assay: blockers of MgcRacGAP-driven Rac1 GTP hydrolysis – biochemical, ADP Hunter fluorescence, primary and confirmatory, confirmation (AID 624330); format: functional
Sequence (Q9H0H5 whole entry): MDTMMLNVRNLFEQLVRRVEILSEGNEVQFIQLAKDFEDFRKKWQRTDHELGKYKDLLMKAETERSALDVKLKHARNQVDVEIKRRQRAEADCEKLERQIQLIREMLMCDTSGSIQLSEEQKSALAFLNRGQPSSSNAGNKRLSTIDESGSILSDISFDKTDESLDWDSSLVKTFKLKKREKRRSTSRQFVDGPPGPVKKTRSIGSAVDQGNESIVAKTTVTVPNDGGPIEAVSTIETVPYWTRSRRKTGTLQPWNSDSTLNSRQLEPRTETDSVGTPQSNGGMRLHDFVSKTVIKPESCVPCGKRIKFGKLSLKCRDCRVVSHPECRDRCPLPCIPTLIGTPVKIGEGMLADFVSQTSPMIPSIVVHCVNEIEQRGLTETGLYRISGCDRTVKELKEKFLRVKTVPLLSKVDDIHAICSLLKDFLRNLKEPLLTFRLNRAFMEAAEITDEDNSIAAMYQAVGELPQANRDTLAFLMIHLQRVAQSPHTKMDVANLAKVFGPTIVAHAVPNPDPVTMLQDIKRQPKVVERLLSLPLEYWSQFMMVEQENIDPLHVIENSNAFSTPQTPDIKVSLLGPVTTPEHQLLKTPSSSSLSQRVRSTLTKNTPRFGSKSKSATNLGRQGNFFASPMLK
Active and inactive are the calls of the source.

For the molecule `O=[S@]1Oc2ccccc2-c2ccccc21` , what IC50 is on record?
76 µM (active)

For the molecule `C/C(=N\Nc1ccc(S(=O)(=O)N2CCCCC2)cn1)c1ccc(O)cc1` , what IC50 is on record?
23.4 µM (active)

For the molecule CN(C)c1ccc2c(c1)N=C(c1ccco1)OP2(=S)N1CCOCC1 (centres undefined) , what IC50 is on record?
179 µM (active)

For the molecule `CCN1CCN(CC(=O)Nc2ccc(C)c(Br)c2)CC1` , what IC50 is on record?
95.7 µM (active)

For the molecule `CN(C)c1ccc(/C=N/O)cc1` , what IC50 is on record?
21.8 µM (active)

For the molecule `CN(C)c1cc(NC(=O)CN2CCCC2)c2ccccc2n1` , what IC50 is on record?
41.6 µM (active)

For the molecule `COc1cc(C(C)=NNC(=O)c2ccncc2)ccc1O` , what IC50 is on record?
49.6 µM (active)

For the molecule Cc1cnc(NC(=O)C(C)N2CCN(C)CC2)s1 (centres undefined) , what IC50 is on record?
80.4 µM (active)

For the molecule `CC(=O)N1CCN(c2ccc(NCc3ccc(F)cc3)cc2)CC1` , what IC50 is on record?
12.9 µM (active)

====

Assign EC50 to each entry below.
target: Peroxisome proliferator-activated receptor gamma/Nuclear receptor coactivator 3 (Homo sapiens); experiment: TR-FRET dose response biochemical High Throughput Screening assay for agonists of the steroid receptor coactivator 3 (SRC-3) recruitment by the peroxisome proliferator-activated receptor gamma (PPAR gamma): non-selective agonists. [Related pubchem assays: 1301 (Confirmation screen.), 1048 (Primary screen.)]; assay type: functional
Sequence (P37231 whole entry): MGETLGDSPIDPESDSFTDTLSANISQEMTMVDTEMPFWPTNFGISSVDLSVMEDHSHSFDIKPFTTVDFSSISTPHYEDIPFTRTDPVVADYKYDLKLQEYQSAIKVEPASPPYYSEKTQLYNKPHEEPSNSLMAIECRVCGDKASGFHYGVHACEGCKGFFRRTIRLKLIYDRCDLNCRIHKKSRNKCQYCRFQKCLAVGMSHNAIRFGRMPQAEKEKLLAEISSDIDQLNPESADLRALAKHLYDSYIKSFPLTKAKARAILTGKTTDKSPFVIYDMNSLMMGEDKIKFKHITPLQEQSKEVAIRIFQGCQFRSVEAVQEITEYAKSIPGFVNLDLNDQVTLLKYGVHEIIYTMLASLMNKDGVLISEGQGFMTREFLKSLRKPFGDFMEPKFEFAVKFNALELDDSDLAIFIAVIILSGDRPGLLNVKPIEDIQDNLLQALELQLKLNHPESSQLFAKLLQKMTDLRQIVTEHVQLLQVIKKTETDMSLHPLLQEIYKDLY
Sequence (Q9Y6Q9 whole entry, further chain): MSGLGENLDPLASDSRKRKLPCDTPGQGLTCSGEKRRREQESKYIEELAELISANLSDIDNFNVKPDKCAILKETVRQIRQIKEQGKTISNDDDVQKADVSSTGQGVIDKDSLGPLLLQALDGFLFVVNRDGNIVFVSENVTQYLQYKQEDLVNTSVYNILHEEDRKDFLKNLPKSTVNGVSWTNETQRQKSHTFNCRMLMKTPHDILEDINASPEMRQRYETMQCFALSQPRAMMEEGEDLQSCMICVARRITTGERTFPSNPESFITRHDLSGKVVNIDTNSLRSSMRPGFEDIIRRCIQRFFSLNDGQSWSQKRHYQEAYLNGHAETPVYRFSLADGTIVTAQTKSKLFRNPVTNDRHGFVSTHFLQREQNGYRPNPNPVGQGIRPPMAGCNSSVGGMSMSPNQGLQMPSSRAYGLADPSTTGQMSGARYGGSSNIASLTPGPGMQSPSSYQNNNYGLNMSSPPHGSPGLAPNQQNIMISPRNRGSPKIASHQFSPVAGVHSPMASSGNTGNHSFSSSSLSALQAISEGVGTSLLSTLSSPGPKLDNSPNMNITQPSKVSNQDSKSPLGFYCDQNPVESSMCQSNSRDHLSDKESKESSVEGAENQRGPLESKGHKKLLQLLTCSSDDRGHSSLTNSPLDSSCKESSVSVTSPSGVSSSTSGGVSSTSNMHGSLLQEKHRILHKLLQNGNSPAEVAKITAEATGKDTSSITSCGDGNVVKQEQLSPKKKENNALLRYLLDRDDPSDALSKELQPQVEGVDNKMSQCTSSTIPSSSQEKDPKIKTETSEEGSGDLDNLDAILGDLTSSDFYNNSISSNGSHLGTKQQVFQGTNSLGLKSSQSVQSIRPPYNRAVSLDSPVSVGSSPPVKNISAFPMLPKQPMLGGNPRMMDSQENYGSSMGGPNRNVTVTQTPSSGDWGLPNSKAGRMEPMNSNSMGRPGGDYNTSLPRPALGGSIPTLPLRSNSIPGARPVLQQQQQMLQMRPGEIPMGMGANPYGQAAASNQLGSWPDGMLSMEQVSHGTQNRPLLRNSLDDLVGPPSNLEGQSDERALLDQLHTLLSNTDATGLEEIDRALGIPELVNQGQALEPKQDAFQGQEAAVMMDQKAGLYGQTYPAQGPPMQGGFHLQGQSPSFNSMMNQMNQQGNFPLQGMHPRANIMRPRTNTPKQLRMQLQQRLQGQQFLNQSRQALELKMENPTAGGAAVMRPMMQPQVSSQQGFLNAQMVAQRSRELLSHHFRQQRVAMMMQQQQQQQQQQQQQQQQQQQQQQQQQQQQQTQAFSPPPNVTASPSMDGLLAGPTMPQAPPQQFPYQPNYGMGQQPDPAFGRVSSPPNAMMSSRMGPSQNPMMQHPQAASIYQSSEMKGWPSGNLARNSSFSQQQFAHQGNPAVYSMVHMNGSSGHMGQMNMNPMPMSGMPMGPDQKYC

For the compound `CCOC(=O)c1sc2nc(C)nc(S)c2c1C` , what EC50 is on record?
> 79.4 µM (not active)

For the compound `O=C(CSc1ncnc2c1oc1ccccc12)NC1CCCCC1` , what EC50 is on record?
> 79.4 µM (not active)

For the compound `Cc1ccc(-n2c(S)nnc2-c2cccc(C)c2)cc1` , what EC50 is on record?
> 79.4 µM (not active)

For the compound `CNC(=O)NC(=O)CSc1nc(-c2cccs2)c(C#N)c(=O)[nH]1` , what EC50 is on record?
> 79.4 µM (not active)

For the compound O=C1CC(Sc2nnc(-c3ccccc3)o2)C(=O)N1c1ccccc1 (stereo unspecified) , what EC50 is on record?
> 79.4 µM (not active)

For the compound `COc1ccc(CNC(=O)CSc2nc(-c3ccccc3)cc(-c3cccs3)c2C#N)cc1` , what EC50 is on record?
> 79.4 µM (not active)

====

experiment: microbe, parasite or virus in culture; format: functional; conditions: Mycobacterium tuberculosis
Active and inactive are the calls of the source.
recorded-endpoint: CC50

For the compound O=C(c1ccc(Cl)cc1)N1N=C(c2ccccn2)CC1(O)C(F)(F)F (centres undefined) , what CC50 is on record?
32.6 µM (active)

For the compound `CN(CC(=O)Nc1ccc(F)c(F)c1F)c1cnccn1` , what CC50 is on record?
23.5 µM (active)

For the compound `CCN(CC)c1ccc(/C=C2\SC(=O)N(C(C)C)C2=O)o1` , what CC50 is on record?
38.7 µM (active)

For the compound `COc1ccccc1-c1cc(C(=O)NC2CCN(C)CC2)c2ccc(Cl)c(C)c2n1` , what CC50 is on record?
7.01 µM (active)

====

For Cytochrome P450 1A2 (Homo sapiens, UniProt P05177), measured AC50 is reported for the entries below.

For the compound `CCCc1cc(COC)c(C#N)c(O)n1` , what AC50 is on record?
6.31 µM (inconclusive)

For the compound `CN(Cc1ccco1)c1ncncc1-c1cccc(C#N)c1` , what AC50 is on record?
12.6 µM (inconclusive)

For the compound `COCCn1c(=O)c(-c2cn(C)c3ccccc23)nc2cnc(Oc3ccccc3)nc21` , what AC50 is on record?
10 µM (inconclusive)

For the compound `Nc1nc(Nc2ccccc2)nc2c1ncn2[C@@H]1O[C@@H](CO)[C@H](O)[C@H]1O` , what AC50 is on record?
39.8 µM (inconclusive)

For the compound `N#Cc1cccc(-c2nc3cnc(N4CCOCC4)nc3n(C[C@H]3CCCO3)c2=O)c1` , what AC50 is on record?
0.794 µM (inconclusive)

For the compound `O=C(CCn1nc(-c2ccc(Cl)cc2)ccc1=O)NCc1ccccn1` , what AC50 is on record?
15.8 µM (inconclusive)

For the compound `CCc1nnc(NC(=O)c2cc(-c3ccccc3)nn2-c2ccccc2)s1` , what AC50 is on record?
15.8 µM (inconclusive)

For the compound `CC(=O)/C(=C\c1ccccc1F)C(=O)c1ccccc1` , what AC50 is on record?
5.01 µM (inconclusive)

For the compound N=C(N)C(/N=N\c1ccccc1)C(=N)N (stereo not drawn) , what AC50 is on record?
5.01 µM (inconclusive)

For the compound `N#CCCn1c(=O)c(-c2cccc(C#N)c2)nc2cnc(Oc3ccccc3)nc21` , what AC50 is on record?
20 µM (inconclusive)

For the compound `Cc1c(Br)c([N+](=O)[O-])nn1CC(=O)NCc1cccs1` , what AC50 is on record?
14.1 µM (inconclusive)

For the compound `COCCNC(=O)COc1ccc(Oc2ccccc2)cc1` , what AC50 is on record?
25.1 µM (inconclusive)

For the compound CCCC[C@@H]1C[C@H]1C(NC(=O)c1ccc(C(F)(F)F)cc1)c1ccc(C(=O)OC)cc1 (stereo partly drawn) , what AC50 is on record?
15.8 µM (inconclusive)

For the compound `N#CCCn1c(=O)c(-c2ccc(Cl)cc2)nc2cnc(Oc3ccccc3)nc21` , what AC50 is on record?
0.501 µM (inconclusive)

For the compound `Clc1ccc([C@@H](OCCN2CCCCC2)c2ccccc2)cc1` , what AC50 is on record?
12.6 µM (inconclusive)

For the compound `c1ccc(-c2nnn(CCN3CCCCC3)n2)cc1` , what AC50 is on record?
5.01 µM (inconclusive)

For the compound Cc1ccc(C2NC(c3ccc(C)cc3)C(C)C(=NO)C2C)cc1 (stereo not drawn) , what AC50 is on record?
15.8 µM (inconclusive)

For the compound `O=C1N(c2ccccc2)c2ccccc2C1(Cc1ccncc1)Cc1ccncc1` , what AC50 is on record?
31.6 µM (inconclusive)
